measurement-target: T1, full length cynomolgus monkey C10orf54 (construct CC4) (cynomolgus monkey, UniProt Q9H7M9 33-311 (human entry))
T1 construct: also called C10orf54 Construct 4
T1 chain: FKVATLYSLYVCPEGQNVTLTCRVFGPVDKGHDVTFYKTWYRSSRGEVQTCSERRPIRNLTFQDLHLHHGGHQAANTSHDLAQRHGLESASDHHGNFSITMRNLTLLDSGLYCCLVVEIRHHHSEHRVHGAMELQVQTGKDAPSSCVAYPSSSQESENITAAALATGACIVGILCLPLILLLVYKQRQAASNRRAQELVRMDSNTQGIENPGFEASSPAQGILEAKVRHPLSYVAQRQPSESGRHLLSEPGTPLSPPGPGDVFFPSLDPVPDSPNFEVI
procedure-details: flow cytometry, transfected 293t cells, 2 ug/ml; stain = MFI >=20-fold over isotype control
readout-label: binding result

{"columns": ["binder", "experimental-value"],
 "data": [
  ["murine monoclonal antibody 33A (antibody, V domains shown, Mouse hybridoma antibody) VH: QVQLQQSGAELMKPGASVKISCKATGYTFSSYWIEWVKQRPGHGLEWIGEILPGSGSTSYNEKFKGKATFTADTSSNTAYMQLSGLTSEDSAVYYCARWLLYYYAMVYWGQGTSVTVSS VL: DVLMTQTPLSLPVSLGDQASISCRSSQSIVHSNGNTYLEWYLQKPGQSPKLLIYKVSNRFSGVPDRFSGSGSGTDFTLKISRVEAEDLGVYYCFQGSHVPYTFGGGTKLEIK", "binds"],
  ["murine monoclonal antibody 26A (antibody, V domains shown, Mouse hybridoma antibody) VH: EVQLQQSGPELVKPGASMKISCKASGFSFTGYTMNWVKQSHVKNLEWIGLISPYNGGTSYNQKFKGKATLTVDKSSSTAYMELLSLTSEDSAVYYCARRAYGYAMDYWGQGTSVTVSS VL: QIVLTQSPAIMSASPGEKVTMTCSASSSVSYMYWYQQKPGSSPRLLIYDTSNLASGVPLRFSGSGSGTSYSLTISRMEAEDAATYYCQQWSSYPFTFGSGTKLEIK", "binds"]
]}

Reference source: patent US20190177415A1
